Target: T1, DIDO1 (death inducer obliterator 1) PHD domain, wild type (UniProt Q9BTC0 266-325)
T1 sequence: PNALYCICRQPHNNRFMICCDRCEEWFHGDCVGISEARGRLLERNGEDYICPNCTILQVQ
Experiment: ITC
Non-standard residues stand in square brackets, D forms with d. No end group written: not given here. Lys(Me3) = C[N+](C)(C)CCCC[C@H](N)C(=O)O
READOUT TYPE: pKd
Conceptually, pKd converts a concentration in mol/L into minus its log10.

## Task Note down pKd recorded for ART[Lys(Me3)]QTARKSTGGY [histone H3 tail peptide trimethylated at K4 (H3K4me3), ARTXQTARKSTGGY with X = Kme3]
## Result 5.64
